Data origin, for the record: paper PMC8080350

molecular target: aldehyde reductase (ALR1) (Ovis aries, UniProt A0ACI6RLT8); test: ALR1 enzyme inhibition assay; format: biochemical, lamb; conditions: substrate sodium D-glucuronate, cofactor NADPH, pH 6.2, 340 nm; read-out: ALR1 IC50 ± SEM
Sequence (A0ACI6RLT8 entry or part of it): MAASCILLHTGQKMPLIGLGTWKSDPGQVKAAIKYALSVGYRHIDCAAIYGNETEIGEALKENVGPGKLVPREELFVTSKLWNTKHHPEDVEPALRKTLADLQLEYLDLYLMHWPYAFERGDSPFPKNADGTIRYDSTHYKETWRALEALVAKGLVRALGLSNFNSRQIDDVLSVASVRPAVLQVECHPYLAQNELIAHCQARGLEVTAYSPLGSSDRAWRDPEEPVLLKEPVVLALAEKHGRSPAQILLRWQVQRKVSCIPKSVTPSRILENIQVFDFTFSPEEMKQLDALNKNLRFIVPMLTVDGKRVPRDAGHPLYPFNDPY
Reported IC50 values follow for various compounds

Study these solved cases before continuing.
smiles=COc1cc(/C=C2\SC(=S)N(CC(=O)N3CCOCC3)C2=O)ccc1O result="6.07 µM"
smiles=COc1ccc(/C=C2\SC(=S)N(CC(=O)Nc3ccccc3)C2=O)cc1 result="2.87 µM"
smiles=COc1cc(/C=C2\SC(=S)N(CC(=O)Nc3ccc(C(=O)O)cc3)C2=O)ccc1O result="3.76 µM"

The recorded IC50 for COc1cc(/C=C2\SC(=S)N(CC(=O)Nc3ccc(C(=O)O)c(O)c3)C2=O)ccc1O is 2.38 µM

The recorded IC50 for COc1cc(/C=C2\SC(=S)N(CC(=O)Nc3ccccc3)C2=O)ccc1O is 5.38 µM

The recorded IC50 for COc1ccc(/C=C2\SC(=S)N(CC(=O)N3CCOCC3)C2=O)cc1 is 2.18 µM

----------
outcome-measure: melting point

Study these solved cases before continuing.
molecule="COc1cc(/C=C2\\SC(=S)N(CC(=O)N3CCOCC3)C2=O)ccc1O [Compound 3b]" result="211 to 213 °C"
molecule="COc1ccc(/C=C2\\SC(=S)N(CC(=O)Nc3ccccc3)C2=O)cc1 [Compound 3e]" result="190 to 192 °C"
molecule="COc1ccc(/C=C2\\SC(=S)N(CC(=O)N3CCOCC3)C2=O)cc1 [Compound 3f]" result="203 to 205 °C"

Next molecule, melting point to be filled in.
The recorded melting point for COc1cc(/C=C2\SC(=S)N(CC(=O)Nc3ccc(C(=O)O)cc3)C2=O)ccc1O [Compound 3d] is 217 to 219 °C

----------
target: aldose reductase (ALR2) (Bos taurus); construct: The enzyme aldose reductase was extracted from calf lenses; from tissue; host or cells: calf lenses; test: ALR2 enzyme inhibition assay; type: biochemical, calf; settings: substrate D,L-glyceraldehyde, cofactor NADPH, pH 6.2, 340 nm; read-out: ALR2 IC50 ± SEM
outcome-measure: pIC50
Just the number, please; pIC50 means minus log10 of the concentration in mol/L.

Study these solved cases before continuing.
molecule="COc1cc(/C=C2\\SC(=S)N(CC(=O)Nc3ccc(C(=O)O)cc3)C2=O)ccc1O [Compound 3d]" outcome_measure=pIC50 quantitative_result=5.13
molecule="CC1=C(CC(=O)O)c2cc(F)ccc2/C1=C\\c1ccc([S+](C)[O-])cc1 (centres unmarked) [Sulindac, reference compound]" outcome_measure=pIC50 quantitative_result=6.54
molecule="COc1cc(/C=C2\\SC(=S)N(CC(=O)Nc3ccccc3)C2=O)ccc1O [Compound 3a]" outcome_measure=pIC50 quantitative_result=6.60
molecule="COc1cc(/C=C2\\SC(=S)N(CC(=O)Nc3ccc(C(=O)O)c(O)c3)C2=O)ccc1O [Compound 3c]" outcome_measure=pIC50 quantitative_result=5.20

The recorded pIC50 for COc1ccc(/C=C2\SC(=S)N(CC(=O)N3CCOCC3)C2=O)cc1 [Compound 3f] is 6.92

----------
biological target: UniProtKB A0ACI6RLT8; assay: ALR1 enzyme inhibition assay; type: biochemical, lamb
outcome-measure: pIC50
Just the number, please; pIC50 means minus log10 of the concentration in mol/L.

The recorded pIC50 for CCCC(CCC)C(=O)O [Valproic acid, reference compound] is 4.24
